Hello, the source for this data is patent US20180044434A1, in case you need it.

- STUDY_SYSTEM: T1, Ala mutant of TA0096, SEQ ID NO: 37
- T1 peptide: EENMDDQWMQAEMEIGY
- PROCEDURE_SUMMARY: ELISA, coated peptide
MEASUREMENT_TYPE: OD 490/630 nm
API doc: respond with a numeric literal and nothing else, no unit.

Some solved cases for reference:
# BINDER, OD 490/630 nm
data = [
    ("A11 (antibody, V domains shown, Chicken variable regions in a mouse chimeric antibody (IgG1); also called anti-PAD4 antibody A11) VH: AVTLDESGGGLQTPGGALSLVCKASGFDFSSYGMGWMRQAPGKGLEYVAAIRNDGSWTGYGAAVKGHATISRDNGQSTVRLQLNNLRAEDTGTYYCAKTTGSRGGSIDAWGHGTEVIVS VL: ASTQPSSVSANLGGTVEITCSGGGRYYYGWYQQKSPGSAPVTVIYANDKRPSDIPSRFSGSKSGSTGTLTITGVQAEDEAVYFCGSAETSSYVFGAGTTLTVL", 1.8),
    ("H7 (antibody, V domains shown, Chicken variable regions in a mouse chimeric antibody (IgG1); also called anti-PAD4 antibody H7) VH: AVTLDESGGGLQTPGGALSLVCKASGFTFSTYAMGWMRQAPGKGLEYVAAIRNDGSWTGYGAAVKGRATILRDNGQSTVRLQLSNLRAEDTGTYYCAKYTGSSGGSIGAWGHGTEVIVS VL: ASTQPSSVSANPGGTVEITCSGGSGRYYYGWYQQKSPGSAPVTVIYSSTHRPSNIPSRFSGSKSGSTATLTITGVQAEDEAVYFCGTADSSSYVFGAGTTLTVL", 1.86),
]

[Q] Which OD 490/630 nm reading was recorded for the binder G8 (antibody, V domains shown, Chicken variable regions in a mouse chimeric antibody (IgG1); also called anti-PAD4 antibody G8) VH: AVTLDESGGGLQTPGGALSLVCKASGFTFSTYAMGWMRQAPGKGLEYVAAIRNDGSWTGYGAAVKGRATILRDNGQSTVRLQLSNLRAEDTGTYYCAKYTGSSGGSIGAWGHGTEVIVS VL: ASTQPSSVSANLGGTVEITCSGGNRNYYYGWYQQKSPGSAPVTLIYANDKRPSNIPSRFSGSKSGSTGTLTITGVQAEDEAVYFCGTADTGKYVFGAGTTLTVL ?
[A] 1.88
